Tested on: Colletotrichum lindemuthianum
Assay: In vivo preventive test on Colletotrichum lindemuthianum (leaf spot on bean)
Conditions: 168 h, 500 ppm of active ingredient, sprayed on young bean plants 24 h before inoculation, evaluated 7 days after inoculation, read-out: efficacy
Catalogue of compounds with associated pest or weed control at 500 ppm

> print(dat)
                                   compound               attribute.measured      result
1  Cc1ccc(CC2CON=C(c3cc(Cl)nnc3Sc3cccc(C(F)(F)F)c3)N2)c(C)c1 (racemic) [Compound I-017]  pest or weed control at 500 ppm  90 to 100%
2  FC(F)(F)c1ccc(Sc2nnc(Cl)cc2C2=NOC[C@@H](Cc3ccc(Cl)cc3Cl)N2)cc1 (racemic) [Compound I-003]  pest or weed control at 500 ppm   70 to 79%
3  Cc1cccc(Sc2cnc(C)nc2C2=NOC[C@@H](Cc3ccc(C)cc3C)N2)c1 (racemic) [Compound I-032]  pest or weed control at 500 ppm  90 to 100%

Q: Specify pest or weed control at 500 ppm for FC(F)(F)c1ccc(Sc2nnc(Cl)cc2C2=NOC[C@@H](Cc3ccc(Br)cc3Cl)N2)cc1 (racemic) [Compound I-035] , system Colletotrichum lindemuthianum.
A: 90 to 100%

Q: # return pest or weed control at 500 ppm of Cc1ccc(C[C@@H]2CON=C(c3nc(C)ncc3Sc3cccc(Cl)c3)N2)c(C)c1 (racemic) [Compound I-031] (system: Colletotrichum lindemuthianum)
A: 90 to 100%

Q: # return pest or weed control at 500 ppm for Cc1ccc([C@H]2CON=C(c3c(Sc4cccc(Cl)c4F)nnc4ccccc34)N2)s1 (racemic) [Compound I-108] , test system: Colletotrichum lindemuthianum
A: 90 to 100%

Q: Enter recorded pest or weed control at 500 ppm with Colletotrichum lindemuthianum for Cc1ccc(C[C@@H]2CON=C(c3nc(C)ncc3Sc3cccc(Cl)c3)N2)c(Cl)c1 (racemic) [Compound I-033] here.
A: 90 to 100%

Q: Name the value of pest or weed control at 500 ppm reported for Cc1ccc([C@H]2CON=C(c3c(Sc4cccc(F)c4)nnc4ccccc34)N2)s1 (racemic) [Compound I-042] when tested on Colletotrichum lindemuthianum.
A: 70 to 79%

Q: Recall the reported pest or weed control at 500 ppm of Cc1cccc(Sc2cnc(C)nc2C2=NOC[C@@H](Cc3ccc(C)cc3Cl)N2)c1 (racemic) [Compound I-010] on Colletotrichum lindemuthianum and write it down.
A: 90 to 100%

Q: Under Colletotrichum lindemuthianum, report pest or weed control at 500 ppm for Cc1ccc(C[C@H]2CON=C(c3nc(C)ncc3Sc3cccc(OC(F)(F)F)c3)N2)c(Cl)c1 (racemic) [Compound I-021]
A: 70 to 79%

This collection of values is drawn from patent US20250042886A1.
